# TEST_SYSTEM: Xanthine dehydrogenase/oxidase (Homo sapiens)
# Sequence (P47989 whole entry): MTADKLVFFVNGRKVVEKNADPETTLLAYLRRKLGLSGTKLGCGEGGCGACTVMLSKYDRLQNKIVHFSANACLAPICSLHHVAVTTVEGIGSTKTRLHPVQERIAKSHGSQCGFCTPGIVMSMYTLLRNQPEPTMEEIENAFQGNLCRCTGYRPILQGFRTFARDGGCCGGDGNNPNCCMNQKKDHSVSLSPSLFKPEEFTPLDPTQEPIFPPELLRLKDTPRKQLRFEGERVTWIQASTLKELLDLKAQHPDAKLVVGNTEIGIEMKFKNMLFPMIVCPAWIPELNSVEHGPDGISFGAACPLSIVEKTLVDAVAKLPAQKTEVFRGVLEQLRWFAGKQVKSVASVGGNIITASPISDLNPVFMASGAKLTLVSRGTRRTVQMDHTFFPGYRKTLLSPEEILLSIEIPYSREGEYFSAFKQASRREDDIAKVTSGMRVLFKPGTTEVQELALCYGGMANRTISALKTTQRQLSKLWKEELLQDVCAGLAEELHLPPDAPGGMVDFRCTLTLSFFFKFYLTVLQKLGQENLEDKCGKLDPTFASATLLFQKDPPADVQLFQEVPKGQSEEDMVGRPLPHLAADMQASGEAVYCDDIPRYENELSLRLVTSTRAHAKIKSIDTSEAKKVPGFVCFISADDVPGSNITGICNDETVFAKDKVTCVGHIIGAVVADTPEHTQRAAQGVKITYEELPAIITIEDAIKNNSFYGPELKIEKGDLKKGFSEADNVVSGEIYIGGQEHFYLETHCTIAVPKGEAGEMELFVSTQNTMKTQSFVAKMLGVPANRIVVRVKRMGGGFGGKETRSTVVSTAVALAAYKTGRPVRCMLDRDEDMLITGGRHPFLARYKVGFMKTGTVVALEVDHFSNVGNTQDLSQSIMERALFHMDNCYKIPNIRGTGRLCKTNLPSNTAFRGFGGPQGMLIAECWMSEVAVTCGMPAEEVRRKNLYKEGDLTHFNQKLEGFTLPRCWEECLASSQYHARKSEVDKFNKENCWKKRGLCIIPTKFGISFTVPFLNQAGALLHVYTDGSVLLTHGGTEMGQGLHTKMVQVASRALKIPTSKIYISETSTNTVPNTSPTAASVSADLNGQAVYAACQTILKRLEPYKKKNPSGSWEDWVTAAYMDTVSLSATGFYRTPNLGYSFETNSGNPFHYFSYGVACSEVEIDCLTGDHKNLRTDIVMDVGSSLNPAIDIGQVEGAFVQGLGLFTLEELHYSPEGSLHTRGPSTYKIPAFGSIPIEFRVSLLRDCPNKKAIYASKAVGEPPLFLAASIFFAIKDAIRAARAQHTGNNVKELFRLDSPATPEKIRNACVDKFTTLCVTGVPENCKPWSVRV
Recorded IC50 values for a group of compounds are listed next.

Cc1nc(-c2ccc(OCC(C)C)c(C#N)c2)sc1C(=O)O [FEBUXOSTAT]; 0.023 µM
CC(C)Cn1cc(C#N)c2ccc(NC(=O)c3cc(=O)[nH]cn3)cc21; > 10 µM
Cc1nc(C(=O)Nc2ccc3c(C#N)cn(C4CCCC4)c3c2)cc(=O)[nH]1; > 10 µM

Find the measured IC50 of COc1ccnc(-c2ccc3c(c2)c(C#N)cn3C(C)C)n1 with Xanthine dehydrogenase/oxidase (Homo sapiens) as test system.
> 10 µM

Find the measured IC50 of CC(C)n1cc(C#N)c2ccc(NC(=O)c3cc(=O)[nH]cn3)cc21 with Xanthine dehydrogenase/oxidase (Homo sapiens) as test system.
> 10 µM

Find the measured IC50 of C=CCn1cc(C#N)c2ccc(NC(=O)c3cc(=O)[nH]cn3)cc21 with Xanthine dehydrogenase/oxidase (Homo sapiens) as test system.
> 10 µM
